Data origin: paper PMC7464785

assay.text: Pharmacokinetics after oral administration to control, G-ARF and C-ARF rats
Format: in vivo, Sprague–Dawley rats
measurement.setup: Sprague-Dawley, rat, plasma, po, 20 mg/kg, G-ARF rats
Method: Rats were randomly divided into three groups: control, G-ARF, and C-ARF rats. […] BUN (Blood urea nitrogen) levels were measured in rats on the last day of induction using a BUN detection kit (Asan Pharmaceutical, Seoul, Korea). […] The reconstituted biological samples were filtered through a 0.45-µm filter (Millipore, Billerica, MA, USA) and analyzed with a reversed-phase column (C18; 25 cm × 4.6 mm, 5 µm; Young Jin Biochrom, Seongnam, Korea) using a UV detector at 287 nm. […]
quantity.measured: Tmax (min)
The response must be a number in min with no trailing unit.

// sample `C[C@@H]1CCN(C(=O)CC#N)C[C@@H]1N(C)c1ncnc2[nH]ccc12` , its Tmax was 30.8
